// provenance: patent US6864068B2

System: F culmorum
EXPERIMENTAL_PROTOCOL: Specific antifungal activity of Rs-AFP2 isoforms in SMF− and SMF+ media
Assay type: cell-based
COND: 1/IC50 of mutant divided by that of yRs-AFP2 x 100; 48 hour incubation; low ionic strength medium; preliminary tests
Description: For each isoform, two independent purifications were carried out and the antifungal activity was determined in duplicate using F culmorum as a test fungus in two different media: a low ionic strength medium called SMF-(Terras et al, 1992, J Biol Chem, 267:15301-15309) and the same medium supplemented with 1 mM CaCl2 and 50 mM KCl called SMF+. […] The relative specific activity is expressed as the specific activity of the mutant divided by the specific activity of yRs-AFP2 and multiplied by 100. […]
# maps each entry to its RELATIVE SPECIFIC ACTIVITY (%) IN MEDIUM SMF−
Just the number in %, nothing appended.

{"SUBSTANCE": "yRs-AFP2/P7R: yeast-expressed Rs-AFP2 isoform, P7 replaced by arginine (QKLCQRRSGTWSGVCGNNNACKNQCIRLEKARHGSCNYVFPAHKCICYFPC; listed as Raphanus sativus)", "MEASURED_NUMBER": 33}
{"SUBSTANCE": "yRs-AFP2/A31W (QKLCQRPSGTWSGVCGNNNACKNQCIRLEKWRHGSCNYVFPAHKCICYFPC; listed as Raphanus sativus)", "MEASURED_NUMBER": 15}

[in] Reported RELATIVE SPECIFIC ACTIVITY (%) IN MEDIUM SMF−, substance yRs-AFP2/G16M (QKLCQRPSGTWSGVCMNNNACKNQCIRLEKARHGSCNYVFPAHKCICYFPC; listed as Raphanus sativus) : ____
[out] 151
